system: SiHa; test: Antitumor activity against human SiHa cells xenografted in immunocompromized gamma irradiated mouse assessed as log cell kill at 42 umol/kg, iv tumor excised post 18 hrs followed by culturing for 14 days under hypoxic condition; type: functional
Value Kind: LCK

COc1cc2cc(C(=O)N3CC(COS(=O)(=O)Cc4ccccc4)c4c3cc([N+](=O)[O-])c3cc(C(=O)NCCOP(=O)(O)O)ccc43)[nH]c2c(OC)c1OC (configuration not stated) | 1.78
COc1cc2cc(C(=O)N3CC(COS(C)(=O)=O)c4c3cc([N+](=O)[O-])c3cc(S(=O)(=O)NCCOP(=O)(O)O)ccc43)[nH]c2c(OC)c1OC (configuration not stated) | 0.6
CN(C)CCOc1ccc2[nH]c(C(=O)N3CC(CCl)c4c3cc([N+](=O)[O-])c3cc(C(=O)NCCOP(=O)(O)O)ccc43)cc2c1 (configuration not stated) | 2.21
O=C(c1cc2cc(OCCN3CCOCC3)ccc2[nH]1)N1CC(COS(=O)(=O)Cc2ccccc2)c2c1cc([N+](=O)[O-])c1cc(S(=O)(=O)NCCOP(=O)(O)O)ccc21 (configuration not stated) | 0.34
COc1ccc(/C=C/C(=O)N2CC(COS(=O)(=O)Cc3ccccc3)c3c2cc([N+](=O)[O-])c2cc(S(=O)(=O)NCCOP(=O)(O)O)ccc32)cc1 (configuration not stated) | 0.78
NC(=O)c1ccc2c3c(cc([N+](=O)[O-])c2c1)N(C(=O)c1cc2cc(OCCOP(=O)(O)O)ccc2[nH]1)CC3COS(=O)(=O)Cc1ccccc1 (configuration not stated) | 0.37
CN(C)CCOc1ccc2[nH]c(C(=O)N3CC(COS(C)(=O)=O)c4c3cc([N+](=O)[O-])c3cc(S(=O)(=O)NCCOP(=O)(O)O)ccc43)cc2c1 (configuration not stated) | 0.33
CN(C)CCOc1ccc2[nH]c(C(=O)N3CC(COS(=O)(=O)Cc4ccccc4)c4c3cc([N+](=O)[O-])c3cc(C(=O)NCCOP(=O)(O)O)ccc43)cc2c1 (configuration not stated) | 0.98
CN(C)CCOc1ccc2[nH]c(C(=O)N3CC(COS(=O)(=O)Cc4ccccc4)c4c3cc([N+](=O)[O-])c3cc(S(=O)(=O)NCCOP(=O)(O)O)ccc43)cc2c1 (configuration not stated) | 0.18
COc1ccc(/C=C/C(=O)N2CC(COS(C)(=O)=O)c3c2cc([N+](=O)[O-])c2cc(S(=O)(=O)NCCOP(=O)(O)O)ccc32)cc1 (configuration not stated) | 0.71
COc1cc2cc(C(=O)N3CC(COS(=O)(=O)Cc4ccccc4)c4c3cc([N+](=O)[O-])c3cc(S(=O)(=O)NCCOP(=O)(O)O)ccc43)[nH]c2c(OC)c1OC (configuration not stated) | 2.71
COc1cc2cc(C(=O)N3CC(CCl)c4c3cc([N+](=O)[O-])c3cc(S(=O)(=O)NCCOP(=O)(O)O)ccc43)[nH]c2c(OC)c1OC (configuration not stated) | 0.54

###

Listing of entries alongside the reported Ratio IC50.
tested on: C-33-A; assay: Ratio of IC50 for human C33A cells under oxic condition to IC50 for human C33A cells under hypoxic condition; format: functional
Value Kind: Ratio IC50

COc1cc2cc(C(=O)N3CC(COS(=O)(=O)Cc4ccccc4)c4c3cc([N+](=O)[O-])c3cc(C(N)=O)ccc43)[nH]c2c(OC)c1OC (centres undefined) | 76
NC(=O)c1ccc2c3c(cc([N+](=O)[O-])c2c1)N(C(=O)c1cc2cc(OCCO)ccc2[nH]1)CC3COS(=O)(=O)Cc1ccccc1 (centres undefined) | 93
COc1ccc(/C=C/C(=O)N2CC(COS(=O)(=O)Cc3ccccc3)c3c2cc([N+](=O)[O-])c2cc(C(N)=O)ccc32)cc1 (centres undefined) | 184
COc1cc2cc(C(=O)N3CC(COS(=O)(=O)Cc4ccccc4)c4c3cc([N+](=O)[O-])c3cc(S(N)(=O)=O)ccc43)[nH]c2c(OC)c1OC (centres undefined) | 177
